# System: M14 melanoma
# EXPERIMENT DESCRIPTION: NCI tumour cell line growth inhibition, 48 h
Each record here notes measured TGI.

# count of solved cases: 2
Cc1ccc(Cl)cc1-c1nc(N)nc(Nc2ccc(Br)cc2)n1 | > 100 µM
COc1cc2c(cc1OCc1ccccc1)N=CC1C[C@@H](O)CN1C2=O (stereo partly specified) | 19.5 µM

INPUT: Which TGI reading was recorded for the compound N#CC1=C(N)Oc2c(ccc3ccccc23)C1c1cccs1 (stereo unspecified) ?
OUTPUT: 11.9 µM

INPUT: # iterate: `O=C(O)c1ccccc1Sc1ccccc1[N+](=O)[O-]`
OUTPUT: > 100 µM

INPUT: # iterate: `O=C(CCc1ccc(O)c(O)c1)NCCc1cc(O)cc(OCc2ccccc2)c1`
OUTPUT: > 100 µM

INPUT: # iterate: `C=CC(=O)N1C[C@H](COc2nc(Nc3cnn(C)c3)nc3[nH]cc(Cl)c23)[C@@H](OC)C1`
OUTPUT: 20.3 µM

* * *

# System: SNB-75 CNS
# EXPERIMENT DESCRIPTION: NCI tumour cell line growth inhibition, 48 h
ASSAY METRIC: TGI

# count of solved cases: 4
CC(C)CSCC1OC(n2cnc3c(N)nccc32)C(O)C1O (centres undefined) | > 100 µM
C=CCc1cccc2cc(C(N)=O)c(=N)oc12 | > 100 µM
O=S(=O)(Nc1ccc(Cl)cc1)c1ccc(-c2cnc(C3CC3)o2)cc1 | 1.54 µM
COc1cc2c(cc1OCc1ccccc1)N=CC1C[C@@H](O)CN1C2=O (some centres undefined) | 47 µM

INPUT: Which TGI reading was recorded for the compound CC1CC(=O)C2CC(CO)=CCCC2C1(C)CC/C(=C/CO)CO (centres undefined) ?
OUTPUT: > 100 µM

INPUT: # iterate: O=S(/C=C/C=C/S(=O)(=O)c1ccccc1)c1ccccc1 (centres undefined)
OUTPUT: > 10 µM

INPUT: # iterate: `CCCNC(=S)N=Nc1c(O)[nH]c2ccccc12`
OUTPUT: > 100 µM

INPUT: # iterate: CC(=O)N1C(Nc2cnc3ccccc3c2)CCN1c1ccccc1 (centres undefined)
OUTPUT: > 10 µM

INPUT: # iterate: `Cc1ccc(S(=O)(=O)N(CCN2C(=O)c3ccccc3C2=O)c2cc3c4c(c2)Oc2cc(N(CCN5C(=O)c6ccccc6C5=O)S(=O)(=O)c5ccc(C)cc5)cc5c2C4(C)c2c(cc(N(CCN4C(=O)c6ccccc6C4=O)S(=O)(=O)c4ccc(C)cc4)cc2O5)O3)cc1`
OUTPUT: > 100 µM

* * *

# System: OVCAR-8 ovarian
# EXPERIMENT DESCRIPTION: NCI tumour cell line growth inhibition, 48 h
ASSAY METRIC: log10(TGI) (log10 of the value in µM)
# log10 transformed; quantity=TGI; unit=µM

COc1ccc(OC)c2[nH]c(Sc3c([N+](=O)[O-])ncn3C)nc12 | 1.70
CC[C@@]1(O)C(=O)OCc2c1cc1n(c2=O)Cc2c-1nc1ccccc1c2Cl | 0.33
CSC(=NC#N)S/C=C/C(=O)c1ccc(Cl)cc1 | 1.68
C/C(=N/OC(=O)c1cccc2c(=O)c3ccccc3[nH]c12)[C@H]1CC[C@H]2[C@@H]3CCC4=C/C(=N/OC(=O)c5cccc6c(=O)c7ccccc7[nH]c56)CC[C@]4(C)[C@H]3CC[C@]12C | 1.52
Nc1ccc(C(=O)NN2C(=O)[C@H](Cl)C2c2ccc(Cl)cc2)cc1 (stereo partly specified) | 0.57

INPUT: Which log10(TGI) reading was recorded for the molecule `O=C(Nc1cccc(Cl)c1)Nc1nccs1` ?
OUTPUT: 1.93

INPUT: # iterate: O=C(Nc1ccc([As]=[As]c2ccc(NC(=O)c3ccccc3)cc2)cc1)c1ccccc1 (stereo unspecified)
OUTPUT: 0.09

INPUT: # iterate: `CCOC(=O)c1cn2c(n1)sc1cc(C)c(C)cc12`
OUTPUT: 1.72

INPUT: # iterate: `Cn1ncc2c(Nc3ccc(Cl)cc3)c3ccccc3nc21`
OUTPUT: 1.48
